System: S.aureus MRSA
Experiment: In vitro activity against selected species (MIC50, MIC90, range)
Format: cell-based
Conditions: Staphylococcus aureus, medium MHA (Mueller Hinton Agar) +NaCl
readoutType: MIC90 (µg/mL)

{"smiles": "Nc1nc(/C(=N/O)C(=O)N[C@@H]2C(=O)N3C(C(=O)O)=C(/C=C4\\CCN(C5CC5)C4=O)CS[C@H]23)cs1", "measuredOn": "S.aureus MRSA", "MIC90 [µg/mL]": 16}

I = Nc1nc(/C(=N/O)C(=O)N[C@@H]2C(=O)N3C(C(=O)O)=C(/C=C4\CCN(CC(F)(F)F)C4=O)CS[C@H]23)cs1
II = Nc1nc(/C(=N/O)C(=O)N[C@@H]2C(=O)N3C(C(=O)O)=C(/C=C4\CCN(c5ccccc5)C4=O)CS[C@H]23)cs1
Query: Between item I and item II , which reported MIC90 is smaller? Respond using the label that marks the chosen record.
Reply: I
(I: 8 µg/mL, II: 16 µg/mL)
